Reference source for all entries: ChEMBL document CHEMBL1125603

test system: Cutibacterium acnes; experiment: Minimum inhibitory concentration against Propionibacterium acnes(NCTC 737)(in vitro); assay type: functional

{"columns": ["COMPOUND", "MIC"],
 "data": [
  ["C=C(C(=O)c1ccc(Cl)cc1Cl)c1ccccc1", "< 0.8 µg/mL"],
  ["O=C(c1ccc(Cl)cc1Cl)C(F)(Cn1ccnc1)c1ccccc1 (configuration not stated)", "25 µg/mL"],
  ["Cc1ncc([N+](=O)[O-])n1CCO [METRONIDAZOLE]", "> 100 µg/mL"],
  ["O=C(c1ccc(Cl)cc1Cl)C(Br)(Cn1ccnc1)c1ccccc1 (configuration not stated)", "< 0.8 µg/mL"],
  ["O=C(c1ccc(Cl)cc1Cl)C(Cl)(Cn1ccnc1)c1ccccc1 (configuration not stated)", "< 0.8 µg/mL"],
  ["O=C(c1ccc(Cl)cc1Cl)C(O)(Cn1ccnc1)c1ccccc1 (configuration not stated)", "100 µg/mL"],
  ["O=C(c1ccc(Cl)cc1Cl)C(Cn1ccnc1)c1ccccc1 (configuration not stated)", "< 0.8 µg/mL"]
]}

====

test system: Bacteroides fragilis; assay: Minimum inhibitory concentration against Bacteroides fragilis(NCTC 9343)(in vitro); format: functional
MIC values by entry

{"columns": ["COMPOUND", "MIC"],
 "data": [
  ["Cc1ncc([N+](=O)[O-])n1CCO", "< 0.8 µg/mL"],
  ["O=C(c1ccc(Cl)cc1Cl)C(Br)(Cn1ccnc1)c1ccccc1 (configuration not stated)", "< 0.8 µg/mL"],
  ["O=C(c1ccc(Cl)cc1Cl)C(F)(Cn1ccnc1)c1ccccc1 (configuration not stated)", "50 µg/mL"],
  ["O=C(c1ccc(Cl)cc1Cl)C(Cn1ccnc1)c1ccccc1 (configuration not stated)", "< 0.8 µg/mL"],
  ["C=C(C(=O)c1ccc(Cl)cc1Cl)c1ccccc1", "< 0.8 µg/mL"],
  ["O=C(c1ccc(Cl)cc1Cl)C(O)(Cn1ccnc1)c1ccccc1 (configuration not stated)", "> 100 µg/mL"],
  ["O=C(c1ccc(Cl)cc1Cl)C(Cl)(Cn1ccnc1)c1ccccc1 (configuration not stated)", "< 0.8 µg/mL"]
]}

====

MIC values by entry
test system: Anaerococcus prevotii; assay: Minimum inhibitory concentration against Peptococcus prevotti(in vitro); type: functional

{"columns": ["MOLECULE", "EXPERIMENTAL_SYSTEM", "INEQUALITY_SIGN", "MIC / µg/mL"],
 "data": [
  ["O=C(c1ccc(Cl)cc1Cl)C(O)(Cn1ccnc1)c1ccccc1 (configuration not stated)", "Anaerococcus prevotii", "=", 12.5],
  ["Cc1ncc([N+](=O)[O-])n1CCO", "Anaerococcus prevotii", "=", 1.5],
  ["O=C(c1ccc(Cl)cc1Cl)C(Cn1ccnc1)c1ccccc1 (configuration not stated)", "Anaerococcus prevotii", "<", 0.8],
  ["O=C(c1ccc(Cl)cc1Cl)C(Cl)(Cn1ccnc1)c1ccccc1 (configuration not stated)", "Anaerococcus prevotii", "<", 0.8],
  ["C=C(C(=O)c1ccc(Cl)cc1Cl)c1ccccc1", "Anaerococcus prevotii", "<", 0.8],
  ["O=C(c1ccc(Cl)cc1Cl)C(Br)(Cn1ccnc1)c1ccccc1 (configuration not stated)", "Anaerococcus prevotii", "=", 1.5],
  ["O=C(c1ccc(Cl)cc1Cl)C(F)(Cn1ccnc1)c1ccccc1 (configuration not stated)", "Anaerococcus prevotii", "=", 6.2]
]}

====

MIC values by entry
test system: Bacteroides fragilis; experiment: Minimum inhibitory concentration against Bacteroides fragilis (WSI)(in vitro); format: functional

{"columns": ["MOLECULE", "EXPERIMENTAL_SYSTEM", "MIC"],
 "data": [
  ["O=C(c1ccc(Cl)cc1Cl)C(Cn1ccnc1)c1ccccc1 (configuration not stated)", "Bacteroides fragilis", "< 0.8 mg/L"],
  ["O=C(c1ccc(Cl)cc1Cl)C(F)(Cn1ccnc1)c1ccccc1 (configuration not stated)", "Bacteroides fragilis", "50 mg/L"],
  ["O=C(c1ccc(Cl)cc1Cl)C(Cl)(Cn1ccnc1)c1ccccc1 (configuration not stated)", "Bacteroides fragilis", "< 0.8 mg/L"],
  ["C=C(C(=O)c1ccc(Cl)cc1Cl)c1ccccc1", "Bacteroides fragilis", "< 0.8 mg/L"],
  ["Cc1ncc([N+](=O)[O-])n1CCO [METRONIDAZOLE]", "Bacteroides fragilis", "1.5 mg/L"],
  ["O=C(c1ccc(Cl)cc1Cl)C(O)(Cn1ccnc1)c1ccccc1 (configuration not stated)", "Bacteroides fragilis", "> 100 mg/L"],
  ["O=C(c1ccc(Cl)cc1Cl)C(Br)(Cn1ccnc1)c1ccccc1 (configuration not stated)", "Bacteroides fragilis", "< 0.8 mg/L"]
]}

====

MIC values by entry
system: Clostridium perfringens; experiment: Minimum inhibitory concentration against Clostridium perfringens (NCTC 523)(in vitro); format: functional

{"columns": ["COMPOUND", "EXPERIMENTAL_SYSTEM", "MIC"],
 "data": [
  ["O=C(c1ccc(Cl)cc1Cl)C(Br)(Cn1ccnc1)c1ccccc1 (configuration not stated)", "Clostridium perfringens", "< 0.8 µg/mL"],
  ["O=C(c1ccc(Cl)cc1Cl)C(Cn1ccnc1)c1ccccc1 (configuration not stated)", "Clostridium perfringens", "< 0.8 µg/mL"],
  ["C=C(C(=O)c1ccc(Cl)cc1Cl)c1ccccc1", "Clostridium perfringens", "< 0.8 µg/mL"],
  ["O=C(c1ccc(Cl)cc1Cl)C(F)(Cn1ccnc1)c1ccccc1 (configuration not stated)", "Clostridium perfringens", "3.1 µg/mL"],
  ["O=C(c1ccc(Cl)cc1Cl)C(Cl)(Cn1ccnc1)c1ccccc1 (configuration not stated)", "Clostridium perfringens", "< 0.8 µg/mL"],
  ["Cc1ncc([N+](=O)[O-])n1CCO", "Clostridium perfringens", "< 0.8 µg/mL"],
  ["O=C(c1ccc(Cl)cc1Cl)C(O)(Cn1ccnc1)c1ccccc1 (configuration not stated)", "Clostridium perfringens", "12.5 µg/mL"]
]}
